- Tested on: Staphylococcus sp.
- experiment-notes: in vitro antibacterial evaluation, MIC by broth dilution
- Format: cell-based
- measurement-conditions: broth dilution, 18 hours at 35° C.; strain GC 3053
In this section, each of the compounds is paired with its reported MIC Staphylococcus aureus (GC 3053).

// known answers, use as guide
CC(c1ccccc1)C1NC(=O)CNC(=O)C(CO)NC(=O)C(C(O)C2CNC(=N)N2C2OC(CO)C(O)C(O)C2O)NC(=O)C(C(O)C2CNC(=N)N2)NC(=O)C(Cc2ccc(OC3OC(CO)C(OC4OC(COCC=Cc5ccccc5)C(O)C(O)C4O)C(O)C3O)cc2)NC1=O (stereo not shown) | 8 µg/mL
CC(c1ccccc1)C1NC(=O)CNC(=O)C(CO)NC(=O)C(C(O)C2CNC(=N)N2C2OC(CO)C(O)C(O)C2O)NC(=O)C(C(O)C2CNC(=N)N2)NC(=O)C(Cc2ccc(OC3OC(CO)C(OC4OC5COC(c6ccsc6)OC5C(O)C4O)C(O)C3O)cc2)NC1=O (stereo not shown) | 4 µg/mL
COc1ccc2cc(COCC3OC(OC4C(CO)OC(Oc5ccc(CC6NC(=O)C(C(C)c7ccccc7)NC(=O)CNC(=O)C(CO)NC(=O)C(C(O)C7CNC(=N)N7C7OC(CO)C(O)C(O)C7O)NC(=O)C(C(O)C7CNC(=N)N7)NC6=O)cc5)C(O)C4O)C(O)C(O)C3O)ccc2c1 (stereo not shown) | 2 µg/mL
CC(c1ccccc1)C1NC(=O)CNC(=O)C(CO)NC(=O)C(C(O)C2CNC(=N)N2C2OC(CO)C(O)C(O)C2O)NC(=O)C(C(O)C2CNC(=N)N2)NC(=O)C(Cc2ccc(OC3OC(CO)C(OC4OC(CO)C(OCC=C(c5ccccc5)c5ccccc5)C(O)C4O)C(O)C3O)cc2)NC1=O (stereo not shown) [Example 241a] | 2 µg/mL
CC(c1ccccc1)C1NC(=O)CNC(=O)C(CO)NC(=O)C(C(O)C2CNC(=N)N2C2OC(CO)C(O)C(O)C2O)NC(=O)C(C(O)C2CNC(=N)N2)NC(=O)C(Cc2ccc(OC3OC(CO)C(OC4OC(CO)C(O)C5OC(CC67CC8CC(CC(C8)C6)C7)OC45)C(O)C3O)cc2)NC1=O (stereo not shown) | 2 µg/mL

Please give the documented MIC Staphylococcus aureus (GC 3053) of CC(c1ccccc1)C1NC(=O)CNC(=O)C(CO)NC(=O)C(C(O)C2CNC(=N)N2C2OC(CO)C(O)C(O)C2O)NC(=O)C(C(O)C2CNC(=N)N2)NC(=O)C(Cc2ccc(OC3OC(CO)C(OC4OC5COC(c6ccc(C(C)(C)C)cc6)OC5C(O)C4O)C(O)C3O)cc2)NC1=O (stereo not shown)
0.5 µg/mL

Please give the documented MIC Staphylococcus aureus (GC 3053) of CC(c1ccccc1)C1NC(=O)CNC(=O)C(CO)NC(=O)C(C(O)C2CNC(=N)N2C2OC(CO)C(O)C(O)C2O)NC(=O)C(C(O)C2CNC(=N)N2)NC(=O)C(Cc2ccc(OC3OC(CO)C(OC4OC5COC(c6cccc(Oc7ccccc7)c6)OC5C(O)C4O)C(O)C3O)cc2)NC1=O (stereo not shown)
1 µg/mL
